Reported values of Ki for individual entries
# studyTarget: human 5-HT6 receptor (Homo sapiens)
# Construct: host or cells: CHO-K1 cells, stably transfected; membranes prepared in house
# Sequence (P50406 whole entry): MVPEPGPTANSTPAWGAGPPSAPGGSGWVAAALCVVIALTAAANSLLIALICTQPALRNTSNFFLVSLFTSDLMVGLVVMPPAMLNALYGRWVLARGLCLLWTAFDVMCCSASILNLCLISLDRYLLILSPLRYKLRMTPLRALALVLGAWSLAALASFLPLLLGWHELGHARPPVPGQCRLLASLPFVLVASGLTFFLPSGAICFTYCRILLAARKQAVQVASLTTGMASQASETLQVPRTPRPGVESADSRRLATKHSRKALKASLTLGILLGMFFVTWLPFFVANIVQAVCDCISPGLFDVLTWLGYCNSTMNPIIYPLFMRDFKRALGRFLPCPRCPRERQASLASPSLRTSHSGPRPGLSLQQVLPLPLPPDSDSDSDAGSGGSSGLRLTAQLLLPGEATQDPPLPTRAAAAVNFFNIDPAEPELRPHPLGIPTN
# testSummary: Human 5-HT6 Receptor Binding Assay ([3H]LSD displacement, scintillation beads)
# details: membranes of CHO-K1 cells with recombinant human 5-HT6, 4 nM [3H]LSD; Table 1, class symbols; read-out: h5-HT6 (Ki)
Counter-ions that a name gives are not always drawn.
measure: Ki

> print(dat)
                                    molecule  measure      reading
 1  CC(C)c1ccc(S(=O)(=O)Oc2ccc3c(c2)C2CCNCC2O3)cc1 (centres unmarked) [Example 716]       Ki     < 0.5 µM
 2  O=S(=O)(c1cccc(F)c1)c1ccc2oc3c(c2c1)CCNC3C1CC1 (centres unmarked) [Example 517]       Ki     < 0.5 µM
 3  CC12CCN(C3CCC3)CC1Oc1ccc(OS(=O)(=O)Cc3ccccc3)cc12 (centres unmarked) [Example 805]       Ki       > 1 µM
 4  Cc1c(OCC2CCOCC2)cccc1S(=O)(=O)c1ccc2c(c1)OC1CNCCC21 (centres unmarked) [Example 582]       Ki     < 0.5 µM
 5  CC(C)Oc1cccc(S(=O)(=O)c2ccc3c(c2)OC2CNCCC32C)c1 (single isomer, unassigned) [Example 21]       Ki     < 0.5 µM
 6  Cc1cc(S(=O)(=O)c2ccc3c4c(oc3c2)CNCC4)ccc1F [Example 218]       Ki     < 0.5 µM
 7  O=S(=O)(Oc1ccc2c(c1)OC1CNCCC21)c1ccccc1Cl (centres unmarked) [Example 654]       Ki     < 0.5 µM
 8  COc1ccc(S(=O)(=O)c2cccc3c2OC2CNCCC32)cc1 (centres unmarked) [Example 187]       Ki  0.5 to 1 µM
 9  [O-][S+](c1cccc(C(F)(F)F)c1)c1ccc2c3c(oc2c1)C1(CCOCC1)NCC3 (centres unmarked) [Example 297]       Ki     < 0.5 µM
10  Cc1c(Cl)cccc1S(=O)(=O)Oc1ccc2c(c1)OC1CNCCC21 (centres unmarked) [Example 658]       Ki     < 0.5 µM
11  N#Cc1ccc(S(=O)(=O)c2ccc3c4c(oc3c2)CNCC4)cc1 [Example 220]       Ki     < 0.5 µM
12  O=S(=O)(Oc1ccc2c(c1)C1CCNCC1O2)c1ccc(-c2ccon2)s1 (centres unmarked) [Example 742]       Ki     < 0.5 µM
13  O=S(=O)(c1ccc2c3c(oc2c1)CNCC3)c1ccccn1 [Example 345]       Ki     < 0.5 µM
14  O=S(=O)(Oc1ccc2c(c1)OC1CNCCC21)c1cc2ccccc2o1 (centres unmarked) [Example 655]       Ki     < 0.5 µM
15  Cc1ccc(S(=O)(=O)Oc2ccc3c(c2)OC2CNCCC32)cc1F (centres unmarked) [Example 652]       Ki  0.5 to 1 µM
16  CC(C)c1ccc(S(=O)(=O)c2ccc3c(c2)OC2CNCCC32)cc1 (centres unmarked) [Example 125]       Ki     < 0.5 µM
17  CC(C)N1CCC2c3ccc(S(=O)(=O)c4ccccc4)cc3OC2C1 (centres unmarked) [Example 608]       Ki     < 0.5 µM
18  CCCCC1NCCc2c1oc1cc(S(=O)(=O)c3cccc(Cl)c3)ccc21 (centres unmarked) [Example 499]       Ki     < 0.5 µM
19  O=S(=O)(Oc1ccc2c(c1)OC1CNCCC21)c1ccc(C(F)(F)F)cc1 (centres unmarked) [Example 673]       Ki     < 0.5 µM
20  CCN1CCC2(C)c3cc(OS(=O)(=O)Cc4ccccc4)ccc3OC2C1 (centres unmarked) [Example 810]       Ki       > 1 µM
21  O=S(=O)(c1ccc2c(c1)OC1CNCCC21)c1ccccc1OCC(F)(F)F (centres unmarked) [Example 408]       Ki     < 0.5 µM
22  O=S(=O)(c1ccc2c(c1)OC1CNCCC21)c1cccc2c1CCO2 (centres unmarked) [Example 418]       Ki     < 0.5 µM
23  O=S(=O)(Oc1ccc2c(c1)C1CCNCC1O2)c1cc(Cl)cc(Cl)c1 (centres unmarked) [Example 739]       Ki     < 0.5 µM
24  CC12CCNCC1Oc1ccc(OS(=O)(=O)Cc3ccccc3)cc12 (centres unmarked) [Example 758]       Ki     < 0.5 µM
25  O=S(=O)(c1ccc2c(c1)OC1CNCCC21)c1ccc2ccccc2c1 (centres unmarked) [Example 122]       Ki     < 0.5 µM
26  O=S(=O)(c1cccnc1)c1ccc2c(c1)OC1CNCCC21 (centres unmarked) [Example 393]       Ki       > 1 µM
27  O=S(=O)(c1cccc(OCC2CCOCC2)c1)c1ccc2c(c1)OC1CNCCC21 (centres unmarked) [Example 581]       Ki     < 0.5 µM
28  [O-][S+](c1cccc(F)c1)c1ccc2c(c1)OC1CNCCC21 (centres unmarked) [Example 625, trifluoroacetic acid salt]       Ki     < 0.5 µM
29  CC1(C(F)F)NCCc2c1oc1cc(S(=O)(=O)c3cccc(F)c3F)ccc21 (single isomer, unassigned; enantiomer 1) [Example 471]       Ki     < 0.5 µM
30  O=S(=O)(Nc1ccccc1)c1ccc2c(c1)C1CCNCC1O2 (centres unmarked) [Example 848]       Ki       > 1 µM
31  O=S(=O)(c1ccc(C(F)(F)F)cc1)c1ccc2oc3c(c2c1)CCNC3 [Example 278]       Ki     < 0.5 µM
32  CN(C)C(=O)CC1(C)NCCc2c1oc1cc(S(=O)(=O)c3cccc(F)c3)ccc21 (single isomer, unassigned) [Example 51]       Ki     < 0.5 µM
33  O=S(=O)(c1ccc2c(c1)C1CCNCC1O2)N1CCC(c2ccccc2)CC1 (centres unmarked) [Example 861]       Ki  0.5 to 1 µM
34  COc1ccc(S(=O)(=O)c2ccc3oc4c(c3c2)CCNC4)cc1 [Example 245]       Ki     < 0.5 µM
35  Cc1ccc2nsnc2c1S(=O)(=O)c1ccc2c(c1)OC1CNCCC21 (centres unmarked) [Example 70]       Ki       > 1 µM

Just for reference, patent US8765779B2 is where these values come from.
